Reference source: patent US6831101B2

Tested on: RANTES-induced [Ca2+]i mobilization in THP-1 cells
Assay: Inhibition of RANTES-induced [Ca2+]i mobilization in THP-1 cells
Type: cell-based
Details: Homo sapiens; Fura-2,AM loaded THP-1 cells, 60 min preincubation, 10 nM RANTES
REPORTED_ENDPOINT: IC50

stdin: Which measured IC50 value corresponds to CC(C)=C1C=C2CC[C@@H]3[C@](C)(CCC[C@@]3(C)C(=O)O)[C@H]2CC1 [Compound 1, 8(14), 13(15)-abietadien-18-oic-acid] ?
stdout: 27.2 nM
